- ASSAYED TARGET: β-catenin (Homo sapiens)
- Sequence (P35222 whole entry): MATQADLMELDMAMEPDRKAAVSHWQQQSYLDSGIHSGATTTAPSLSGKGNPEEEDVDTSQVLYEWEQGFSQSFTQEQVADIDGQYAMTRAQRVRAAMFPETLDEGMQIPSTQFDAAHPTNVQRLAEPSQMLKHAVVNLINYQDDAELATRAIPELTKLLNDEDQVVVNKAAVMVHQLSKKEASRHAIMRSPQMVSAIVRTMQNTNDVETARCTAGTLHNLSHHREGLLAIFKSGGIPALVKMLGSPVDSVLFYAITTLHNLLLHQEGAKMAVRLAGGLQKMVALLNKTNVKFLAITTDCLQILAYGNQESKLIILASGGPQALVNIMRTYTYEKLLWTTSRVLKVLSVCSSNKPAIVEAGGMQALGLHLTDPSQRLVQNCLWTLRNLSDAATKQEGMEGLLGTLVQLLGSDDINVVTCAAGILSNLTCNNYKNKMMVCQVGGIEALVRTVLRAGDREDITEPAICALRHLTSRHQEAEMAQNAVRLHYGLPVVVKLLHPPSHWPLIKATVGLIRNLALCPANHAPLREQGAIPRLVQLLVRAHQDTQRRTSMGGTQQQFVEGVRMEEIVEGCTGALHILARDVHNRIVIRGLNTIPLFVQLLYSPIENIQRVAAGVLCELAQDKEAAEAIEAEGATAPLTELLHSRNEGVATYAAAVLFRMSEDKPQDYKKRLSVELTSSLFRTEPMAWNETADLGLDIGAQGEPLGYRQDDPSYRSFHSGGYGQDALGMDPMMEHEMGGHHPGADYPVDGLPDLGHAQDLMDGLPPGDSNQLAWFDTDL
- TEST DESCRIPTION: KD50 measurement using competitive fluorescence polarization (FP) with labelled TCF4
- Format: binding
- COND: fluorescence polarization, β-catenin; read-out: β-Cat FP KD
Where a SMILES comes first, the peptide text is derived from it.
PROPERTY NAME: Kd

COMPOUND	Kd
CC[C@H](C)[C@@H]1NC(=O)[C@H](CC(C)C)NC(=O)[C@H](Cc2ccccc2)NC(=O)[C@H](Cc2c[nH]c3ccccc23)NC(=O)[C@H](CCSC)NC(=O)[C@@H](N)CCCCNC(=O)C[C@@H](C(=O)O)NC(=O)[C@H](Cc2c[nH]c3ccccc23)NC(=O)[C@H](C)NC(=O)[C@H](CS)NC1=O [compound 167] (HELM PEPTIDE1{K.M.W.F.L.I.C.A.W.D}$PEPTIDE1,PEPTIDE1,1:R3-10:R3$$$V2.0)	1 to 10 µM

Identify measured Kd corresponding to CC[C@H](C)[C@H](NC(=O)[C@H](CC(C)C)NC(=O)[C@H](Cc1ccccc1)NC(=O)[C@H](Cc1c[nH]c2ccccc12)NC(=O)[C@H](CCSC)NC(=O)[C@H](CCCNC(=N)N)NC(=O)CNC(=O)[C@@H](N)CCSC)C(=O)N[C@@H](CO)C(=O)N[C@@H](Cc1ccccc1)C(=O)N[C@@H](Cc1c[nH]c2ccccc12)C(=O)NCC(=O)O [compound 67] (H-MGRMWFLISFWG-OH)
1 to 10 µM

Report measured Kd; entry is CCCCCC[C@H](N)C(=O)N[C@@H](Cc1c[nH]c2ccccc12)C(=O)N[C@@H](Cc1ccccc1)C(=O)N[C@@H](CC(C)C)C(=O)N[C@H](C(=O)N[C@@H](CS)C(=O)N[C@@H](Cc1ccccc1)C(=O)N[C@@H](Cc1c[nH]c2ccccc12)C(=O)NCC(=O)O)[C@@H](C)CC [compound 139] (HELM PEPTIDE1{[CCCCCC[C@H](N)C(=O)[*:2]].W.F.L.I.C.F.W.G}$$$$V2.0)
> 30 µM

Give recorded Kd. CC[C@H](C)[C@H](NC(=O)[C@H](Cc1c[nH]c2ccccc12)NC(=O)[C@@H](N)CCSC)C(=O)NC(C)(CC(C)C)C(=O)N[C@H](C(=O)N[C@@H](CS)C(=O)N[C@@H](Cc1ccccc1)C(=O)N[C@@H](Cc1c[nH]c2ccccc12)C(=O)NCC(=O)O)[C@@H](C)CC (stereo partly drawn) [compound 130] (HELM PEPTIDE1{M.W.I.[CC(C)CC(C)(N[*:1])C(=O)[*:2]].I.C.F.W.G}$$$$V2.0)
1 to 10 µM

Tell us which Kd value is on record for CC[C@H](C)[C@@H]1NC(=O)[C@H](CC(C)C)NC(=O)[C@H](Cc2ccccc2)NC(=O)[C@@H](N)CCCCNC(=O)C[C@@H](C(=O)O)NC(=O)[C@H](Cc2c[nH]c3ccccc23)NC(=O)[C@H](Cc2ccccc2)NC(=O)[C@H](C)NC1=O [compound 253] (HELM PEPTIDE1{K.F.L.I.A.F.W.D}$PEPTIDE1,PEPTIDE1,1:R3-8:R3$$$V2.0)
> 30 µM

Please list Kd recorded for the compound CC[C@H](C)[C@H](NC(=O)[C@H](C)NC(=O)[C@H](Cc1ccccc1)NC(=O)[C@H](Cc1c[nH]c2ccccc12)NC(=O)[C@@H](N)CCSC)C(=O)N[C@@H](CO)C(=O)N[C@@H](Cc1ccccc1)C(=O)N[C@@H](Cc1c[nH]c2ccccc12)C(=O)NCC(=O)O [compound 12] (H-MWFAISFWG-OH)
1 to 10 µM

The reported numbers originate from patent US12441768B2.
